Test: AP1 Signaling Pathway (AID 357);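 note: ME-180 reporter cells stimulated with EGF at its EC50 level; % is set by controls: 0 for no effect and ±100 for the full control effect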
Details: ME-180 (cervical carcinoma) AP-1-bla reporter, EGF-induced, beta-lactamase ratio, 5 h; at 7.69 µM (top of the series) unless noted
Inconclusive results are not listed. Activity calls are given as the source filed them. Calls come from the whole dose curve; as a rule, active = well fitted curve in either direction with a large enough effect (not every such curve was filed as active); inconclusive = small, poorly fitted or top-dose-only effect, or another doubt; inactive = flat fitted curve, though single readings scatter.
Quick reference: activity change, negative = inhibition of the listed items.
readout name: activity change, negative = inhibition

> print(dat)
                                    compound          data.value
 1  CCNc1ncc2nc(-c3cn(C)c4ccccc34)c(=O)n(Cc3ccc(F)cc3)c2n1   -5.76% (inactive)
 2  CN1CCN(c2ncc3nc(-c4ccccc4)c(=O)n(C)c3n2)CC1    19.6% (inactive)
 3  O=C(c1csnn1)N1CCC[C@@]2(CCN(C(c3ccccc3)c3ccccc3)C2)C1    8.26% (inactive)
 4         COc1ccccc1CNc1ccnc(-c2ccccc2OC)n1  -0.503% (inactive)
 5  O=C(c1csnn1)N1CCC2(CCN(Cc3cc(C(F)(F)F)cc(C(F)(F)F)c3)CC2)CC1    11.5% (inactive)
 6        COCCNc1nc(-c2cccc(OC)c2)nc2ccccc12   -3.79% (inactive)
 7  O=C(c1cccc(F)c1)N1CCC2(CC1)CN(c1ccc(-c3ccccc3)cc1)C2    9.76% (inactive)
 8              Cc1noc(C)c1-c1cncnc1-n1ccnc1   0.604% (inactive)
 9    COc1ncc2nc(-c3ccc(Cl)cc3)c(=O)n(C)c2n1   -10.2% (inactive)
10           N#Cc1ccc(CN2CCC3(CCNCC3)CC2)cc1    1.45% (inactive)
11  COc1ccc(-n2c(=O)c(-c3ccc(F)c(F)c3)nc3cncnc32)cc1   -1.43% (inactive)
